Quick reference for fold change among some compounds
test: viability loss with induced miR-34 in A549 – imaging, A549 dox-inducible miR-34, nuclei and caspase counts, primary screen (AID 1347080); conditions: A549 miR-34 inducible, Hoechst nuclei count, 48 h; measured here: relative caspase fold change +Dox/-Dox
Just the number, please, no unit attached.

Some compounds with recorded fold change:
compound=CCCCCCCCCCCCCCCCCCCCCC(=O)NCCS(=O)(=O)O reported_result=0.367
compound=Cc1cc(C)cc(C(=O)N(C)[C@H](Cc2ccc(-c3ccccc3)cc2)C(=O)N[C@@H](Cc2c[nH]c3ccccc23)C(=O)O)c1 reported_result=0.967
compound=Cn1c2ccccc2c2c3c(c4c5ccccc5n(CCC#N)c4c21)CNC3=O reported_result=1.06
compound=C#CCOc1ccccc1CCCCCC(=O)O reported_result=0.728
compound=CN1CCN(C2=Cc3ccccc3Oc3ccc(Cl)cc32)CC1 reported_result=0.764
compound=COc1cc(Br)c(S(=O)(=O)Nc2ccc(Cl)c(O[C@@H]3CCN(C)C3)c2)cc1OC reported_result=1.74

Measured fold change, `Nc1[nH]nc2nc3ccccc3nc12` : 0.743

###

assay: viability loss with induced miR-34 in A549 – imaging, A549 dox-inducible miR-34, nuclei and caspase counts, primary screen (AID 1347080); conditions: A549 miR-34 inducible, Hoechst nuclei count, 48 h; measured here: relative caspase fold change +Dox/-Dox
Reported Property: fold change
I'd appreciate a reply containing only the number, no unit.

molecule=CCCCC[C@H](O)/C=C/[C@H]1CCC(=O)[C@@H]1C/C=C\CCCC(=O)O reported_property="fold change" reported_result=1.35
molecule=NCCCCCCCCCCNS(=O)(=O)c1cccc2c(Cl)cccc12 reported_property="fold change" reported_result=0.835
molecule=Cc1ccc(Sc2ccccc2N2CCNCC2)c(C)c1 reported_property="fold change" reported_result=0.501
molecule=OC[C@H]1O[C@@H](n2cnc3c(NC4CCCC4)ncnc32)[C@H](O)[C@@H]1O reported_property="fold change" reported_result=0.89
molecule=O=C(O)Cn1nnc(-c2cc(N3CCC(Oc4cc(F)ccc4Br)CC3)no2)n1 reported_property="fold change" reported_result=0.826

Entry `COc1ccc2c(Oc3ccc(NC(=O)c4c(C)n(CC(C)(C)O)n(-c5ccccc5)c4=O)nc3)ccnc2c1` ; fold change = 0.917

fold change for `O=C(O)CCC/C=C\C[C@@H]1[C@@H](/C=C/[C@H](O)CCc2ccccc2)[C@H](O)C[C@@H]1O` is 1.56

The reported fold change of the molecule `COc1ccc([C@H]2CNC(=O)C2)cc1OC1CCCC1` was 0.702

Summary for this molecule, `CCCCCCCCC#CCCCCCCCC(=O)c1nc2ncccc2o1` : fold change is 1.11

###

# Lookup of reported AC50 keyed by entry
experiment: viability loss in pontine glioma line – cell-based, SU-DIPG-XVII, MIPE5.0, CellTiter-Glo, qHTS, dose response (AID 1347060); settings: CellTiter-Glo ATP luminescence;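 note: cells exposed to compound for 48 hours before viability readout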
Records with an inconclusive call do not appear. The source made the active and inactive calls. Cut-off not given; nearly all actives show AC50 up to about 26 µM.

// worked examples, AC50 included
structure=O=C(NC1CCNCC1)c1[nH]ncc1NC(=O)c1c(Cl)cccc1Cl reported_result="6.61 µM (active)"
structure=COc1cccc2c(NCc3ccccc3)nc(-n3c(N)nc4ccccc43)nc12 reported_result="3.72 µM (active)"
structure=COc1ccc(-c2ccc3c(N4CCOC[C@@H]4C)nc(N4CCOC[C@@H]4C)nc3n2)cc1CO reported_result="0.209 µM (active)"

Consider the additional molecule presented here.
In plain terms, `Oc1ccc(-c2ccc(-c3cc(Nc4cccc(CNC5CC5)c4)n[nH]3)cc2)c(O)c1` has a documented AC50 of 6.61 µM (active)

###

test: growth inhibition of DIPG cells – cell-based, MIPE5.0 library, qHTS (AID 1347068); details: SU-DIPG-XXV viability;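 for IC50: cells exposed to compound for 48 hours before viability readout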
Results filed as inconclusive are left out. The source made the active and inactive calls. The limit is not given here; nearly all actives have IC50 up to about 30 µM.
Reported Property: IC50

molecule=NC(=O)c1cnc(N[C@@H]2CCCC[C@@H]2N)nc1Nc1cccc(-n2nccn2)c1 reported_result="18.6 µM (active)"
molecule=CS(=O)(=O)N1CCC(NC(=O)c2[nH]ncc2NC(=O)c2c(Cl)cccc2Cl)CC1 reported_result="4.68 µM (active)"
molecule=CC(C)(O)CNc1nc(Nc2ccnc(C(F)(F)F)c2)nc(-c2cccc(C(F)(F)F)n2)n1 reported_result=inactive
molecule="CNC1CCC(N(Cc2cccc(-c3ccncc3)c2)C(=O)c2sc3ccccc3c2Cl)CC1 (stereo not drawn)" reported_result="9.34 µM (active)"
molecule=COc1ccc(CCC(=O)Nc2nc3ccc(Cl)cc3s2)cc1OC reported_result=inactive
molecule=Cn1c(NC[C@@H](N)Cc2ccccc2)nc(-c2ccncc2)c(-c2ccc3ccccc3c2)c1=O reported_result=inactive
molecule=C=CCN(/C=C1\C(=O)O[C@@H](COC)[C@]2(C)C1=C(O)C(=O)C1=C2[C@@H](OC(C)=O)C[C@]2(C)C(=O)CC[C@H]12)CC=C reported_result=inactive
molecule="C[C@](Cc1c[nH]c2ccccc12)(NC(=O)OC1C2CC3CC(C2)CC1C3)C(=O)NC[C@H](NC(=O)CCC(=O)O)c1ccccc1 (stereo partly drawn)" reported_result=inactive
molecule=CCn1c(-c2nonc2N)nc2c(C#CC(C)(C)O)ncc(OC[C@H]3CCCNC3)c21 reported_result="16.6 µM (active)"
molecule=Cc1cc(Nc2nc(N[C@@H](C)c3ncc(F)cn3)ncc2Cl)n[nH]1 reported_result="1.48 µM (active)"

Record `CO[C@@H]1COCC[C@@H]1N[C@@H]1CC[C@@](C(=O)N2CCc3ncc(C(F)(F)F)cc3C2)(C(C)C)C1` , field IC50: inactive

Reported IC50 ( `Cc1ccc(C(=O)N(CCCN)[C@@H](c2oc3cc(Cl)ccc3c(=O)c2Cc2ccccc2)C(C)C)cc1` ) = 0.0417 µM (active)

IC50 measured on `Cc1cc(C)cc(Oc2ccc(CNC(=O)[C@H](C)N)cc2C)c1` = inactive

Lab book: IC50 of `C1=C/COCc2cc(ccc2OCCN2CCCC2)Nc2nccc(n2)-c2cccc(c2)COC/1` noted as 2.95 µM (active)

For `CC1(C)CCC(CN2CCN(c3ccc(C(=O)NS(=O)(=O)c4ccc(NCC5CCOCC5)c([N+](=O)[O-])c4)c(Oc4cnc5[nH]ccc5c4)c3)CC2)=C(c2ccc(Cl)cc2)C1` the molecule record lists IC50 as inactive

Reported IC50 of `CCN1/C(=C/C(C)=O)Sc2ccc(OC)cc21` : inactive

IC50 for `COc1cc(Nc2nc3ccccc3nc2NS(=O)(=O)c2ccc(NC(=O)c3ccc(C)c(OC)c3)cc2)cc(OC)c1` is inactive

GET /value?item= `Nc1cc(COc2c(Cl)cc(C[C@H](N)C(=O)O)cc2Cl)c2oc(-c3ccccc3)nc2c1` &field=IC50 returns inactive

###

assay: CRL1545 cell growth, single agent and combined, cisplatin and BGB IC20 combos (AID 1671464); settings: CRL1545 osteosarcoma cells, single agent, at 0.05 µM, stronger effect = higher value;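 note: cells exposed to compound for 96 hours before readout; 0% = vehicle DMSO and 100% = high DMSO killing control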
Reported Property: inhibition
Kindly write the number and append the unit.

structure=O=C(/C=C/c1cccc(S(=O)(=O)Nc2ccccc2)c1)NO reported_result=-2.13%
structure=O=c1[nH]cnc2ccccc12 reported_result=-24.3%
structure=CN(C)CCN1C(=O)c2cccc3cc(N)cc(c23)C1=O reported_result=-14.5%
structure=N=C1CCCN1Cc1[nH]c(=O)[nH]c(=O)c1Cl reported_result=12.9%
structure=CCCCc1nc2cc(/C=C/C(=O)NO)ccc2n1CCN(CC)CC reported_result=-14.8%

--- query ---
Summary for this compound, `O=C(CCCCCCNC(=O)c1cnc(N(c2ccccc2)c2ccccc2Cl)nc1)NO` : inhibition is -5.85%

###

test system: Aerobactin synthetase IucA (Klebsiella pneumoniae); experiment: inhibition of K. pneumoniae IucA enzyme – biochemical, Tocris library, absorbance (AID 1345561); settings: purified IucA enzyme assay, absorbance (OD) read-out; stronger effect = lower value;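 tested at 8 µM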;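 note: 100% = enzyme without compound and 0% = no enzyme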
Activity calls are given as the source filed them. No rule for the calls is given here. Where a SMILES comes first, the peptide text is derived from it. [ ]: non-standard residue; d: D form.
Reported Property: remaining activity

molecule="CC(=O)NCC(=O)N[C@H](CCC(=O)O)C(=O)O (Ac-Gly-[dE]-OH)" reported_result="103% (inactive)"
molecule=CN(C)CCCCSC(=N)N reported_result="110% (inactive)"
molecule=COc1ccc(-c2nc(C(=O)N3CCN(C)CC3)sc2-c2ccc(OC)cc2)cc1 reported_result="116% (inactive)"
molecule=Cc1c(NC(=O)N2CCOCC2)ccc2c1c1ccccc1n2C(C)C reported_result="122% (inactive)"
molecule=COc1cc(C=O)c([N+](=O)[O-])cc1OC reported_result="102% (inactive)"

Switching to the query record.
Value (remaining activity, Aerobactin synthetase IucA (Klebsiella pneumoniae)) for record `CN(C)c1nc(N)c(C(=O)Nc2cccnc2)nc1Cl` = 113% (inactive)
